Reported activity change, negative = cytotoxicity values are given for each entry in this list.
assay-details: lymphoblastoid cell cytotoxicity, dose response, cytotoxicity control, plate reader, dry powder, set 2 (AID 624367)
experimental-setup: Lymphoblastoid cell line (LCL) cytotoxicity, plate reader; at 35 µM (top of the series)

>  <substance-smiles>
CO[C@H]1CN(C)C(=O)c2ccc(NC(=O)C3CC3)cc2OC[C@H](C)N(C(=O)c2ccccn2)C[C@H]1C

>  <activity change, negative = cytotoxicity [%]>
-0.57

$$$$
>  <substance-smiles>
CN1C(=O)c2cc(NC(=O)c3ccc(C(F)(F)F)cc3)ccc2OC[C@@H]2O[C@H](CC(=O)NC3Cc4ccccc4C3)CC[C@H]21

>  <activity change, negative = cytotoxicity [%]>
-1.04

$$$$
>  <substance-smiles>
COc1cccc(-c2cccc(-c3nc(C(=O)NCC(F)(F)F)cc4c3[C@H](CCO)N([S@@](=O)C(C)(C)C)C4)c2)c1

>  <activity change, negative = cytotoxicity [%]>
-12.4

$$$$
>  <substance-smiles>
C[C@@H](NC(=O)C[C@H]1C=C[C@@H](NC(=O)Cc2ccccn2)[C@@H](CO)O1)c1ccccc1

>  <activity change, negative = cytotoxicity [%]>
-7.23

$$$$
>  <substance-smiles>
C[C@@H]1CN([C@@H](C)CO)C(=O)Cc2cc(NC(=O)Cc3ccccc3)ccc2O[C@H]1CN(C)Cc1ccc(C(F)(F)F)cc1

>  <activity change, negative = cytotoxicity [%]>
-7.42

$$$$
>  <substance-smiles>
C[C@H](CO)N1C[C@H](C)[C@@H](CN(C)Cc2ccc(C(F)(F)F)cc2)Oc2ccc(NC(=O)Cc3ccccc3)cc2CC1=O

>  <activity change, negative = cytotoxicity [%]>
-0.272

$$$$
>  <substance-smiles>
COc1cccc(S(=O)(=O)N(C)C[C@@H]2Oc3cc(C4=CCCCC4)ccc3S(=O)(=O)N([C@@H](C)CO)C[C@H]2C)c1

>  <activity change, negative = cytotoxicity [%]>
0.436

$$$$

---

Tested on: Lymphoblastoid cell line (LCL) cytotoxicity, plate reader
assay-details: lymphoblastoid cell cytotoxicity, dose response, cytotoxicity control, plate reader, dry powder, set 2 (AID 624367)
assay-endpoint: AC35

>  <substance-smiles>
O=C(C[C@H]1C[C@H]2c3cc(NC(=O)c4ccc5c(c4)OCO5)ccc3O[C@H]2[C@H](CO)O1)NCc1ccc(Oc2ccccc2)cc1

>  <assay-endpoint>
AC35

>  <endpoint-result>
33.8 µM

$$$$
>  <substance-smiles>
O=C(C[C@H]1C[C@@H]2c3cc(NS(=O)(=O)c4ccc(F)cc4)ccc3O[C@@H]2[C@@H](CO)O1)NCc1ccc(Oc2ccccc2)cc1

>  <assay-endpoint>
AC35

>  <endpoint-result>
34.7 µM

$$$$
>  <substance-smiles>
CN(C)c1ccc2c(c1)[C@@H]1C[C@H](CC(=O)NCc3ccc(Oc4ccccc4)cc3)O[C@@H](CO)[C@@H]1O2

>  <assay-endpoint>
AC35

>  <endpoint-result>
30.4 µM

$$$$
>  <substance-smiles>
O=C(Nc1ccc(C(F)(F)F)cc1)Nc1ccc2c(c1)[C@@H]1C[C@H](CC(=O)N3CCc4ccccc4C3)O[C@H](CO)[C@@H]1O2

>  <assay-endpoint>
AC35

>  <endpoint-result>
36.7 µM

$$$$
>  <substance-smiles>
O=C(C[C@@H]1C[C@@H]2c3cc(NS(=O)(=O)c4ccc(F)cc4)ccc3O[C@@H]2[C@@H](CO)O1)NCc1ccc(Oc2ccccc2)cc1

>  <assay-endpoint>
AC35

>  <endpoint-result>
22.2 µM

$$$$
>  <substance-smiles>
O=C(C[C@@H]1C[C@@H]2c3cc(NC(=O)c4ccc5c(c4)OCO5)ccc3O[C@@H]2[C@@H](CO)O1)NCc1ccc(Oc2ccccc2)cc1

>  <assay-endpoint>
AC35

>  <endpoint-result>
16 µM

$$$$

Each recorded value in this set is attributed to PubChem BioAssay AID624367.
